Ref: patent US20160046592A1

Tested on: Rat skeletal muscle-derived L6 myoblasts (differentiated into myotube cells)
Experiment: Evaluation of glycogen accumulation in L6
Type: cell-based
Conditions: [14C] glycogen from D-[U-C14] glucose, 3 hours incubation, 100% = compound of Example 1 of WO/2011/058154 at 30 μM
Protocol: The glycogen accumulation activity was evaluated in skeletal muscle cells according to the published article (ANALYTICAL BIOCHEMISTRY, Vol. 261: 159-163, 1998) by the following method. […] After ethanol remaining on the filter was completely removed by drying, MicroScint40 (PerkinElmer Inc.) was added at 50 μL/well, the amount of [14C] glycogen was measured with TopCountNXT (PerkinElmer Inc.). The activity of each test compound was calculated by the following method. […]
Where a name gives a salt, the structure may show the parent alone.
Measured EC50, listed per entry for reference.

molecule="CSc1cc(F)c(F)cc1-c1ccc(OCc2cccc(C(=O)N(CC(=O)O)Cc3ccccn3)c2)cc1 [Example 20, Trifluoroacetate]" measured_value="710 nM"
molecule="CSc1cc(F)c(F)cc1-c1ccc(OCc2cccc(C(=O)N(CCN3CCCC3)CC(=O)O)c2)cc1 [Example 40, Trifluoroacetate]" measured_value="5400 nM"

For the next question, use this molecule.
Given the entry CNCCN(CC(=O)O)C(=O)c1cccc(COc2ccc(-c3cc(F)c(F)cc3SC)cc2)c1 [Example 28, Trifluoroacetate] , report its measured EC50.
< 300 nM
